// reported remaining at 5.5 h, 10 μmolar for each item listed
experiment: Stability of conjugates in human blood; assay type: in vitro ADME; settings: fresh heparinized whole human blood, 37° C., read-out: Conjugate Stability in Blood After 5.5 Hours (Percent of Control (In Buffer, T = 0)), Human Blood
Residues, ends and D or L forms follow the SMILES beside them. *: point of attachment. Doxorubicin(3'-N) = COc1cccc2c1C(=O)c1c(O)c3c(c(O)c1C2=O)C[C@@](O)(C(=O)CO)C[C@@H]3O[C@H]1C[C@H](N*)[C@H](O)[C@H](C)O1
Write down the numeric answer in % and omit the unit.

>  <Molecule>
COc1cccc2c1C(=O)c1c(O)c3c(c(O)c1C2=O)C[C@@](O)(C(=O)CO)C[C@@H]3O[C@H]1C[C@H](NC(=O)[C@H](CC(C)C)NC(=O)[C@H](Cc2ccc(O)cc2)NC(=O)[C@H](CC(C)C)NC(=O)CNC(=O)[C@H](CC(C)C)NC(=O)[C@@H]2CCCN2C(C)=O)[C@H](O)[C@H](C)O1 [Ac-PLG-LYL-Dox, acetyl-P-L-G-L-Y-L-Dox] (Ac-PLGLYL-{Doxorubicin(3'-N)})

>  <Measured>
90.1

$$$$
>  <Molecule>
COc1cccc2c1C(=O)c1c(O)c3c(c(O)c1C2=O)C[C@@](O)(C(=O)CO)C[C@@H]3O[C@H]1C[C@H](NC(=O)[C@H](CC(C)C)NC(=O)[C@H](C)NC(=O)[C@H](Cc2ccc(O)cc2)NC(=O)[C@H](CC(C)C)NC(=O)CNC(=O)[C@H](CC(C)C)NC(=O)[C@@H]2CCCN2C(C)=O)[C@H](O)[C@H](C)O1 [Ac-PLG-LYAL-Dox, acetyl -P-L-G-L-Y-A-L-Dox] (Ac-PLGLYAL-{Doxorubicin(3'-N)})

>  <Measured>
37.5

$$$$
>  <Molecule>
COc1cccc2c1C(=O)c1c(O)c3c(c(O)c1C2=O)C[C@@](O)(C(=O)CO)C[C@@H]3O[C@H]1C[C@H](NC(=O)[C@H](CC(C)C)NC(=O)[C@H](CC(C)C)NC(=O)CNC(=O)[C@H](CC(C)C)NC(=O)[C@@H]2CCCN2C(C)=O)[C@H](O)[C@H](C)O1 [Ac-PLG-LL-Dox, Acetyl-P-L-G-L-L-Dox] (Ac-PLGLL-{Doxorubicin(3'-N)})

>  <Measured>
87.2

$$$$
>  <Molecule>
COc1cccc2c1C(=O)c1c(O)c3c(c(O)c1C2=O)C[C@@](O)(C(=O)CO)C[C@@H]3O[C@H]1C[C@H](NC(=O)[C@H](CC(C)C)NC(=O)CNC(=O)[C@H](CC(C)C)NC(=O)[C@@H]2CCCN2C(=O)CNC(C)=O)[C@H](O)[C@H](C)O1 [Ac-GPLG-L-Dox] (Ac-GPLGL-{Doxorubicin(3'-N)})

>  <Measured>
10.2

$$$$
>  <Molecule>
COc1cccc2c1C(=O)c1c(O)c3c(c(O)c1C2=O)C[C@@](O)(C(=O)CO)C[C@@H]3O[C@H]1C[C@H](NC(=O)[C@H](CC(C)C)NC(=O)CNC(=O)[C@H](CC(C)C)NC(=O)[C@@H]2CCCN2C(C)=O)[C@H](O)[C@H](C)O1 [Ac-PLG-L-Dox, Ac-PLGL-Dox] (Ac-PLGL-{Doxorubicin(3'-N)})

>  <Measured>
74.7

$$$$

Field: next molecule
Consider COc1cccc2c1C(=O)c1c(O)c3c(c(O)c1C2=O)C[C@@](O)(C(=O)CO)C[C@@H]3O[C@H]1C[C@H](NC(=O)[C@H](CC(C)C)NC(=O)[C@H](C)NC(=O)[C@H](CC(C)C)NC(=O)CNC(=O)[C@H](CC(C)C)NC(=O)[C@@H]2CCCN2C(C)=O)[C@H](O)[C@H](C)O1 [Ac-PLG-LAL-Dox, acetyl-P-L-G-L-A-L-Dox] (Ac-PLGLAL-{Doxorubicin(3'-N)}) . Its measured remaining at 5.5 h, 10 μmolar is 49.1
